Tested on: ACHN renal
test-details: NCI-60 one-dose screen, 48 h (100 = growth as untreated, 0 = no growth, -100 = all killed)
experimental-context: 10 µM unless noted
Procedure: Growth inhibition of the ACHN human tumor cell line is measured as a screen for anti-cancer activity. Cells are grown in 96 well plates and exposed to the test compound for 48 hours. Compounds are tested at a single concentration, which is 10^-5 M for most compounds. The reported endpoint is percent growth (GI% or GIPRCNT), where numbers from 0 - 100% represent growth inhibition, and numbers from -100% - 0 represent cell death. For example, a value of 40 represents 60% growth inhibition. […]
About 83,000 compounds went through this panel and 20% of them were active in at least one assay; those are over-represented in the sample as a whole.
observed-property: growth (%)
Write the number in % without appending the unit.

Req: Name the recorded growth for COc1ccc(OC)c(C(=O)Nc2cccc(-c3cc(=O)c4ccccc4o3)c2)c1 .
Resp: 84.7

Req: Recorded growth for N=C(N)c1ccc(-c2ccc(-c3ccc(Cl)c(Cl)c3)o2)nc1 , please?
Resp: -86.9

Req: Any idea what its growth is? The compound is CC1=NN(c2cccc(Cl)c2)C(=O)/C1=C\c1cn(CC(O)CN2CCCCC2)c2ccccc12 (stereo not given)
Resp: 38.6

Req: Fill in the blank: the reported growth of Nc1c(C(=O)c2ccc(Cl)s2)sc2nc3c(cc12)CCCC3 is ____.
Resp: 112

Req: Recorded growth for Clc1ccc(/C=C/c2nc(Nc3ccc(Cl)cc3)c3ccccc3n2)cc1 , please?
Resp: 105

Req: State the recorded growth for this entry: CS(=O)(=O)c1ccc(-c2[nH]c3ccc(F)cc3c2/C=N/O)cc1
Resp: 97

Req: # lookup: growth of N=C(N)c1ccc(-c2ccc(-c3ccc(Cl)cc3Cl)o2)nc1
Resp: 12.3

Req: I would be grateful if you could share the reported growth for CO[C@H]1/C=C/O[C@@]2(C)Oc3c(C)c(O)c4c(c3C2=O)C(=O)C(/C=N/N(c2ccccc2)c2ccccc2)=C(NC(=O)/C(C)=C\C=C\[C@H](C)[C@H](O)[C@@H](C)[C@@H](O)[C@@H](C)[C@H](OC(C)=O)[C@@H]1C)C4=O .
Resp: -33

Req: # input compound: Cc1ccc(S(=O)(=O)Nc2sccc2-c2nc(-c3ccccc3)no2)cc1 ; wanted: its growth
Resp: 89.9

Req: Dear colleague, I am looking for the recorded growth of the following compound: COc1ccc(CN2C(=O)/C(=C\c3cc(OC)c(OC)c(OC)c3)c3ccccc32)cc1
Resp: -59.5

Sourced from PubChem BioAssay (NCI)
